Reference for the values: patent US20070178531A1

A450 for assorted binders
Target: T1, Mouse Id2: Histidine (mouse, UniProt P41136 1-134, limits assumed)
T1 construct: Fusion protein made in E. coli from vector pGW07; also called m-Id2: His; not shown: His tag
T1 sequence (looked up): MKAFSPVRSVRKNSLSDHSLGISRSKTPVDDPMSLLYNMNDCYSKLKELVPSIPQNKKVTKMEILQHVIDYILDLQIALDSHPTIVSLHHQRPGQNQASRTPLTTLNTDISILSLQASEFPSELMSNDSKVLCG
Test: ELISA, Ab 0.025 µg/ml
Protocol: The rabbit monoclonal anti-human Id3 (clone #3-3) and the rabbit monoclonal anti-mouse/human Id3 (clones #6-1, 16-1, 17-3, and 42-1) produced in Example 6 were tested reactivity against the following antigens: mouse Id1:His, human Id1:His, mouse Id2:His, human Id2:His, mouse Id3:His, human Id3:His, mouse Id4:His, human Id4:His and GST. 1. […]

>  <BINDER>
rabbit monoclonal anti-human Id3, clone #BCH-4/#3-3 (antibody, V domains shown, Rabbit IgG from a rabbit hybridoma; also called h Id3 MoAb 3-3) VH: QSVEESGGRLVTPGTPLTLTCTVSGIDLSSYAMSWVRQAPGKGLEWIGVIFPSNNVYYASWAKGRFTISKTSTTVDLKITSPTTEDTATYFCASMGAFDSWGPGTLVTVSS VL: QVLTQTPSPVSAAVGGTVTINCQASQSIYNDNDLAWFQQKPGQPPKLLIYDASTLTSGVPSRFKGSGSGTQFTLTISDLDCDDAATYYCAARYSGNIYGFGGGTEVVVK

>  <UNITS SYMBOL>
A450

>  <A450>
0.048

$$$$
>  <BINDER>
rabbit monoclonal anti-mouse/human Id3, clone #BCH-4/#16-1 (antibody, V domains shown, Rabbit IgG from a rabbit hybridoma; also called m/h Id3 MoAb 16-1) VH: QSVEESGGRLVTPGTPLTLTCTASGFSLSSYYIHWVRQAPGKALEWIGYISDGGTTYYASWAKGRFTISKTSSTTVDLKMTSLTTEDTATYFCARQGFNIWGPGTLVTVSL VL: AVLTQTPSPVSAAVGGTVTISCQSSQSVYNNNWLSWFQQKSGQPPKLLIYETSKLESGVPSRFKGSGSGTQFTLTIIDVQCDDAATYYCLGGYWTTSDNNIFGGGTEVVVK

>  <UNITS SYMBOL>
A450

>  <A450>
0.051

$$$$
>  <BINDER>
rabbit monoclonal anti-mouse/human Id3, clone #BCH-4/#17-3 (antibody, V domains shown, Rabbit IgG from a rabbit hybridoma; also called m/h Id3 MoAb 17-3; BCH-3/#17-3) VH: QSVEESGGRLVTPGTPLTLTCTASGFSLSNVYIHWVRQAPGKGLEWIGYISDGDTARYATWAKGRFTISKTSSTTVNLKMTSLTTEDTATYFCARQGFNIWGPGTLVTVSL VL: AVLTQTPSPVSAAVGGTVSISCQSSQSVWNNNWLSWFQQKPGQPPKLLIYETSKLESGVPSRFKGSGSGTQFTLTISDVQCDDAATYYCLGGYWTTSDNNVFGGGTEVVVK

>  <UNITS SYMBOL>
A450

>  <A450>
0.05

$$$$
>  <BINDER>
rabbit monoclonal anti-mouse/human Id3, clone #BCH-4/#6-1 (antibody, V domains shown, Rabbit IgG from a rabbit hybridoma; also called m/h Id3 MoAb 6-1) VH: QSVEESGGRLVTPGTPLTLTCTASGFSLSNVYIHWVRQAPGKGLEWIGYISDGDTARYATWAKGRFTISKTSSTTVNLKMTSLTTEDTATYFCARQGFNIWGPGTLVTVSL VL: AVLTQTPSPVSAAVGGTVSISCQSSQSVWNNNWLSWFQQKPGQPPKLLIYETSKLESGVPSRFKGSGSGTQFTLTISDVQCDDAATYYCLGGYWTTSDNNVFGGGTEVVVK

>  <UNITS SYMBOL>
A450

>  <A450>
0.048

$$$$
>  <BINDER>
rabbit monoclonal anti-mouse/human Id3, clone #BCH-4/#42-1 (antibody, V domains shown, Rabbit IgG from a rabbit hybridoma; also called m/h Id3 MoAb 42-1) VH: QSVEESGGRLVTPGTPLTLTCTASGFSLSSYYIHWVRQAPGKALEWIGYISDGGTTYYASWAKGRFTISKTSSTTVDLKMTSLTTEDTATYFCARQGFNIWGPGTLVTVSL VL: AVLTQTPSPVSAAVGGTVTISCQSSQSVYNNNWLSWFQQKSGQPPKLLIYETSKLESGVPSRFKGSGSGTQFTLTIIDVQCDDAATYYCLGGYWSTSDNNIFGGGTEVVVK

>  <UNITS SYMBOL>
A450

>  <A450>
0.052

$$$$
